Reference source for all entries: paper PMC4850295

# System: GCaMP5-expressing T. gondii
# Construct: whole extracellular parasites expressing GCaMP5 Ca2+ sensor
# Parameters: species or system GCaMP5-expressing Toxoplasma gondii, extracellular; GCaMP5 fluorescence (cytosolic Ca2+) after 100 uM zaprinast in compound-pretreated extracellular parasites, background-subtracted, relative to zaprinast alone
# DETAILS: 100 uM zaprinast stimulation; 10 min pretreatment; mean of two replicates; 0.23 h
REPORTED_METRIC: fold change in fluorescence relative to zaprinast alone
API note: the answer field is a bare number with no unit suffix.

C/C(Nc1ccc(S(N)(=O)=O)cc1)=C1/C(=O)Nc2ccccc21 [GW335962X] | 1.108

Give a short answer stating reported fold change in fluorescence relative to zaprinast alone for O=C1Nc2ccccc2/C1=C/Nc1ccc2[nH]c(=O)[nH]c2c1 [GW284408X] .
0.9722

Give a short answer stating reported fold change in fluorescence relative to zaprinast alone for Nc1nc(-c2ccccn2)c(-c2ccc3ncccc3n2)s1 [GW693481X] .
1.166

Give a short answer stating reported fold change in fluorescence relative to zaprinast alone for CC1=C(C(=O)Nc2cc(Cl)c3[nH]ncc3c2)C(c2ccc(C(F)(F)F)cc2)CC(=O)N1 (stereo not drawn) [GSK466317A] .
1.01

Give a short answer stating reported fold change in fluorescence relative to zaprinast alone for CN(C)c1cc(-c2ccc3c(N)n[nH]c3c2)nc(N)n1 [GSK2219329A] .
0.9361

Give a short answer stating reported fold change in fluorescence relative to zaprinast alone for COc1cc2c(cc1Nc1nc(Nc3ccsc3C(N)=O)c3cc[nH]c3n1)N(C(=O)CN(C)C)CCC2 [GSK2110236A] .
1.302
